I'd be grateful if you could share measured Spearman est (compound concentration vs apparent Tm) for these entries.
target: SARS-CoV-2 NSP3 Mac1 (Severe acute respiratory syndrome coronavirus 2); assay type: binding; design: contains a conserved macrodomain enzyme (Mac1); conditions: DSF dose responsiveness, 1 µM nsp3 mac1; adj p given
Lab note: jot the number down without any unit.

Quick check: Spearman est (compound concentration vs apparent Tm) of O=C(O)CC1CN(c2ncnc3[nH]c4cc(F)ccc4c23)CCO1 (stereo not shown) ?
0.91

Same again, this time with Cn1nc(O)c2c1CN(C(=O)c1cc(O)cc(=O)o1)CC2
−0.34

Moving on to the next compound: Nc1ncnc2c1ncn2CCCc1ccsc1
0.79

Also need CC(CSc1nnc2[nH]cnn12)c1ccccc1 (stereo not shown) , thanks.
−0.66

Again, but for Cc1ccc(CC(=O)OCc2noc(C3CC3)n2)cc1O
0.02

Same again, this time with CC(C(=O)N1CCCC1c1nc(C(N)=O)no1)c1cccc(F)c1 (stereo not shown)
0.29

Here is the next compound: O=C1COc2cc(C(=O)NC3c4cccc(O)c4CC3C(=O)O)ccc2N1 (stereo not shown)
0.59

Repeat with O=C(Nc1ccc(C(=O)NCc2c(C(=O)O)oc3ccccc23)cc1)NC1CC1
0.37

Let us now turn to Cc1ccccc1CC(C)c1nc(-c2cc(N)ncn2)no1 (stereo not shown)
0.77

What do you have for NC(=O)C1CCCN(c2ncnc3[nH]c4cc(F)ccc4c23)C1 (stereo not shown) ?
0.18

Param item: O=C(c1cccc(O)c1)N1CC=C(c2ccccc2)C1
0.55

Moving on to the next compound: COC(=O)CC1CN(c2ncnc3[nH]ccc23)c2ccccc21 (stereo not shown)
0.77

Param item: OCc1cn(C2CCCN(c3ncnc4[nH]ccc34)C2)nn1 (stereo not shown)
0.65

Repeat for the following compound: CNC(=O)Nc1ccc(C(=O)NC2c3ccccc3CC2C(=O)O)cc1 (stereo not shown)
0.98

Next compound: CC(O)CNc1cc(N2CC3(CCC3)C(F)(C(=O)O)C2)ncn1 (stereo not shown)
0.59

Consider next the compound O=C(NC1c2cccc(O)c2CC1C(=O)O)c1ccc(Nn2ccnc2)cc1 (stereo not shown) in the same way.
0.18

What would you report for Cc1nc2c(C(=O)OCc3ccnc(N(C)C)c3)ccnc2[nH]1 ?
0.62

Also O=C(NC1c2ccccc2CC1C(=O)O)c1ccc(NC(=O)C2CC2)cc1 (stereo not shown) ?
0.76

Let us now turn to Cc1csc(=Nc2ccccc2)n1Cc1nnc2n1CCNC2=O
0.59

----------
molecular target: SARS-CoV-2 NSP3 Mac1 (Severe acute respiratory syndrome coronavirus 2); set-up: contains a conserved macrodomain enzyme (Mac1); Differential scanning fluorimetry of Mac1, maximum thermal upshift; details: maximum shift over tested concentrations; binder
readout: DSF max dTma (°C)
Write the number in °C without appending the unit.

Could you tell me which DSF max dTma is on file for O=C(Cc1ccc(-n2cccn2)cc1)OCC1CCCNC1=O (stereo not drawn) ?
0.16

Now the same for CC1(C(=O)O)CCN(C(=O)Cc2c[nH]c3nccc(Cl)c23)C1 (stereo not drawn)
0.07

O=c1[nH]nc(C2CCCN(c3ncnc4[nH]c5cc(F)ccc5c34)C2)o1 (stereo not drawn) , same question.
0.5

Entry O=C(NC1c2cccc(O)c2CC1C(=O)O)c1ccc(NCC2CC2)nc1 (stereo not drawn) please
2.03

Next entry: Cc1noc(CC2CCCN(c3ncnc4[nH]c5cc(F)ccc5c34)C2)n1 (stereo not drawn)
0.6

How about CC1CC(C(=O)O)N1C(=O)c1cc(O)nc2ccc(F)cc12.O=C(O)C(F)(F)F (stereo not drawn) ?
0.37

Hello, the source for this data is paper PMC9926234, in case you need it.
